A collection of compounds and their measured pIC50
molecular target: human RORgammaT-Ligand Binding Domain (LBD) (Homo sapiens (Human), UniProt P51449); assay: RORγ-Ligand Binding Domain TR-FRET assay (co-activator peptide SRC1_2 recruitment); type: biochemical; conditions: HIS-tagged RORγ-LBD 3 nM, biotinylated SRC1 LXXLL peptide 100 nM, incubated overnight at 4° C., 665 nm/615 nm signal quotient; read-out: Fret IC50
Sequence (P51449 269-508): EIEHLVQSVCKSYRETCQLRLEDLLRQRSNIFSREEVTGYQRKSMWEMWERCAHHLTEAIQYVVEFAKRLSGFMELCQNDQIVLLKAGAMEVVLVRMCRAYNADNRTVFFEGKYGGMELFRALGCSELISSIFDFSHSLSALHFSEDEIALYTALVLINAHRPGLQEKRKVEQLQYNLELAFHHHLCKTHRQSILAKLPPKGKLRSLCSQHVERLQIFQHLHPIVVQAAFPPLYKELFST
Schema: pIC50 number; meaning minus log10 of the concentration expressed in molar units.

Observe how each entry below is paired with its result.
Compound | Quantitative result
O=C(O)C1CC=C(c2cn(C(=O)c3c(Cl)cccc3C(F)(F)F)c3cccc(F)c23)CC1 (stereo not shown) [Example 5A] | 8.40
CC1CC(C(=O)O)CC=C1c1nn(C(=O)c2c(Cl)cccc2C(F)(F)F)c2cccc(F)c12 (racemic) [Example 12A] | 7.27
O=C(O)C1CCC(O)(c2nn(C(=O)c3c(Cl)cccc3C(F)(F)F)c3cccc(F)c23)CC1 (stereo not shown) [Example 13A] | 5.61
O=C(c1c(Cl)cccc1C(F)(F)F)n1nc([C@H]2CC[C@H](C(=O)O)CC2)c2ncccc21 [Example 11A] | 6.68
O=C(O)C1CC=C(c2nn(C(=O)c3c(Cl)cccc3C(F)(F)F)c3cc(C(=O)N4CCCCC4)ccc23)CC1 (stereo not shown) [Example 4Y] | 6.80
O=C(NCCO)c1ccc2c(C3=CCC(C(=O)O)CC3)nn(C(=O)c3c(Cl)cccc3C(F)(F)F)c2c1 (stereo not shown) [Example 1D] | 6.11

pIC50 in this record for C[C@@H]1CN(C(=O)c2ccc3c(C4=CCC(C(=O)O)CC4)nn(C(=O)c4c(Cl)cccc4C(F)(F)F)c3c2)C[C@H](C)O1 (stereo partly shown) [Example 4M] : 7.68

pIC50 in this record for C[C@H]1CCCN1C(=O)c1ccc2c(C3=CCC(C(=O)O)CC3)nn(C(=O)c3c(Cl)cccc3C(F)(F)F)c2c1 (stereo partly shown) [Example 4G] : 8.22

pIC50 in this record for COC1CN(C(=O)c2ccc3c(C4=CC[C@@](C)(C(=O)O)CC4)nn(C(=O)c4c(Cl)cccc4C4CC4)c3c2)C1 (single isomer, unassigned) [Example 2D] : 8.30

pIC50 in this record for CC1(C(=O)O)CC=C(c2nn(C(=O)c3c(Cl)cccc3C(F)(F)F)c3cccc(Cl)c23)CC1 (stereo not shown) [Example 1I] : 7.85

pIC50 in this record for C[C@]1(C(=O)O)CC[C@@H](c2nn(C(=O)c3c(Cl)cccc3C(F)(F)F)c3cccc(F)c32)CC1 [Example 9B] : 5.30

pIC50 in this record for O=C(O)C1CC=C(c2nn(C(=O)c3c(Cl)cccc3C(F)(F)F)c3ccccc23)CC1 (stereo not shown) [Example 1H] : 7.70

pIC50 in this record for O=C(O)C1CCC(c2nn(C(=O)c3c(Cl)cccc3C(F)(F)F)c3cccc(F)c23)=CC1O (stereo not shown) [Example 6A] : 8.70

pIC50 in this record for O=C(O)C1CC=C(c2nn(C(=O)c3c(Cl)cccc3C(F)(F)F)c3cc(C(=O)N4CCCC4)ccc23)CC1 (stereo not shown) [Example 4F] : 7.52

pIC50 in this record for O=C(O)C1CC=C(c2nn(C(=O)c3c(Cl)cccc3C(F)(F)F)c3cc(C(=O)N4CCOCC4)ccc23)CC1 (stereo not shown) [Example 4L] : 7.44

pIC50 in this record for COCCN(C)C(=O)c1ccc2c(C3=CCC(C(=O)O)CC3)nn(C(=O)c3c(Cl)cccc3C(F)(F)F)c2c1 (stereo not shown) [Example 4V] : 7.51
